Cited source for all entries: PubChem BioAssay (NCI)

experiment: NCI Yeast Anticancer Drug Screen. Data for the mec2-1 strain (AID 157); settings: S. cerevisiae mec2-1 strain, at 50.0 µM
The panel holds about 79,000 compounds, 15% with a hit somewhere; the sample as a whole holds those more often. Calls of active or inactive are those of the source. No stated cut-off is given here; in the data, active means growth inhibition above about 70%; inactive means the rest.
Returns: one label drawn from active, inactive

Known results for compounds:
compound=COc1ccc(C2=CSC3=NC(C)(C)CC(C)=NN23)cc1 category=inactive
compound=N#Cc1ccccc1C(Cl)(Cl)c1cnccn1 category=inactive
compound="N#CCC(=O)N/N=C1\\C(=O)N(c2ccc(Cl)cc2)C(=O)C(=O)C1c1nc2ccccc2o1 (configuration not stated)" category=inactive
compound=COc1ccc(-c2nc3ccccc3[nH]2)cc1 category=inactive

**Q:** Which result was noted for this compound in the test: Clc1ccc(C2N3CCCCC3[C@@H]3c4[nH]c5ccccc5c4CCN23)cc1 (some centres not stated)
**A:** inactive

**Q:** Which result was noted for this compound in the test: Cc1ccc(S(=O)(=O)NC2CC3(C)CCC2C3(C)C)cc1 (configuration not stated)
**A:** inactive

---

test: NCI Yeast Anticancer Drug Screen. Data for the rad50 strain (AID 155);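 further: 0% = growth of vehicle-only cultures of the same strain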; conditions: S. cerevisiae rad50 strain growth inhibition; at 50.0 µM; active compounds read high
The panel holds about 79,000 compounds, 15% with a hit somewhere; the sample as a whole holds those more often. Activity calls are given as the source filed them. No stated cut-off is given here; in the data, active means growth inhibition above about 70%; inactive means the rest.
Parameter: growth inhibition

Solved entries:
compound="CCN(CC)C(=S)N1C(=O)C2C3CCC(O3)C2C1=O (stereo not given)" parameter="growth inhibition" result="19.1% (inactive)"
compound=O=C(Nc1ccn(CCI)c(=O)n1)c1ccccc1 parameter="growth inhibition" result="-20.8% (inactive)"
compound="COC(=O)/C(C#N)=C1\\CCC(O)N1C (stereo not given)" parameter="growth inhibition" result="11.9% (inactive)"

Dear colleague, could you please provide growth inhibition for the compounds listed below?
1. c1csc(CNc2cccc3ccccc23)c1
2. CC12CCC(C1)C(C)(C)/C2=N\O (stereo not given)
3. O=[N+]([O-])c1ccc2[nH]c3nc4ncccc4nc3c2c1
4. COc1ccc(/C=C2/CSC/C(=C/c3ccc(OC)c(OC)c3)C2=O)cc1OC
5. CCCCCCCCCOc1ccc2ccccc2c1
6. Cc1ccsc1/C=N/Nc1cnccn1

**A:**
1. 54.5% (inactive)
2. -16.2% (inactive)
3. -3.4% (inactive)
4. -16.2% (inactive)
5. -16.9% (inactive)
6. 11.1% (inactive)

Dear colleague, could you please provide growth inhibition for the compounds listed below?
1. O=C(N/N=C/c1ccccc1)C1CC1
2. CCCCCCCCCCCCCCCCS(=O)(=O)N/N=C(/c1ccc(OC)c(OC)c1)N1CCCCC1
3. Nc1ccccc1C(F)(F)F
4. CN1CCN(CC(=O)N2c3ccccc3Sc3cc4ccccc4cc32)CC1

**A:**
1. 9.35% (inactive)
2. -24.9% (inactive)
3. 2.45% (inactive)
4. 2.3% (inactive)

---

experiment: NCI Yeast Anticancer Drug Screen. Data for the mlh1 rad18 strain (AID 175); details: S. cerevisiae mlh1 rad18 strain growth inhibition; at 50.0 µM
This is part of a sample that, as a whole, favours compounds with a hit. Of some 79,000 tested, about 15% had one in any assay. Calls of active or inactive are those of the source. Rule as the data show it: active = growth inhibition above about 70%; inactive = the rest.
Returns: one label drawn from active, inactive

Known results for compounds:
compound="CCOC(=O)C(C)c1nc2cc(C(F)(F)F)ccc2[nH]c1=O (stereo unspecified)" category=inactive
compound=CCCCCCC(=O)/C=C/c1ccccc1OCOC category=inactive

**Q:** Which result was noted for this compound in the test: "Cc1cc(C)n(/N=C/c2ccccc2[N+](=O)[O-])c(=O)c1C#N"
**A:** inactive

**Q:** Which result was noted for this compound in the test: C/C=C(\C)C(=O)N1c2ccccc2CC1c1c(C)[nH]c2ccccc12 (stereo unspecified)
**A:** inactive

**Q:** Which result was noted for this compound in the test: "CC(=O)Nc1cc(C(C)=O)ccc1C(C)=O"
**A:** inactive

**Q:** Which result was noted for this compound in the test: C=C(Cl)C(Cl)(CBr)CCC(Cl)C(C)C (stereo unspecified)
**A:** active

**Q:** Which result was noted for this compound in the test: OCC1OC(n2cnc3c(Cl)nc(Nc4ccc(Cl)c(Cl)c4)nc32)CC1O (stereo unspecified)
**A:** inactive

**Q:** Which result was noted for this compound in the test: CCCCCCCCCCCCCCCC(=O)OCC1OC(n2ccc(N)nc2=O)C(O)C1O (stereo unspecified)
**A:** inactive

**Q:** Which result was noted for this compound in the test: "Cn1c(=O)c2c(-c3ccccc3)onc2n(C)c1=O"
**A:** inactive

**Q:** Which result was noted for this compound in the test: "CCCCCCCCCCCCN=Cc1cc(Cc2ccc(O)c(C=NCCCCCCCCCCCC)c2)ccc1O"
**A:** active

**Q:** Which result was noted for this compound in the test: Cc1cccc[n+]1C1CCc2ccccc2C1=O (stereo unspecified)
**A:** inactive
